Measured Ca, listed per entry.
Organism: Rattus norvegicus
Assay: Open TG-GATES - Regimen: Single
Type: toxicity, organism-based, Sprague-Dawley
Set-up: regimen Single, gender Male, age 6 weeks
Settings: in vivo, po, 0 mg/kg, 24 h, tissue Plasma, route gavage, dose level Control
Entry rule: numbers only, all in mg/dL.

The cases that follow already have their Ca on record.
1) CS(=O)(=O)Nc1ccc([N+](=O)[O-])cc1Oc1ccccc1 [NIMESULIDE]	10.7
2) O=C1CN(/N=C/c2ccc(-c3ccc([N+](=O)[O-])cc3)o2)C(O)=N1 [DANTROLENE]	10.9

Here's the next entry for you.
q: // Ca lookup, key: Cc1cccc(Nc2cc(Cl)nc(SCC(=O)O)n2)c1C [PIRINIXIC ACID]
a: 11

====

Species on record: Rattus norvegicus
Test: Open TG-GATES - Regimen: Daily Repeat
Assay type: toxicity, organism-based, Sprague-Dawley
Parameters: regimen Daily Repeat, gender Male, age 6 weeks
Conditions: in vivo, po, 0 mg/kg, […], tissue Plasma, route gavage, dose level Control, time 14 day
Parameter: Ca (mg/dL)
The reply should be a number in mg/dL, with the unit left off.

1) C=CCO [ALLYL ALCOHOL]	10.5
2) COc1ccc(Cl)cc1C(=O)NCCc1ccc(S(=O)(=O)NC(=O)NC2CCCCC2)cc1 [GLYBURIDE]	10.7
3) Cn1c(=O)c2c(ncn2C)n(C)c1=O [CAFFEINE]	10.5
4) COc1ccc(O)c(C(C)(C)C)c1.COc1ccc(O)cc1C(C)(C)C [BUTYLATED HYDROXYANISOLE]	10.7

Alright, here's another molecule for you.
q: Which Ca value is on record for Cn1cnc([N+](=O)[O-])c1Sc1ncnc2nc[nH]c12 [AZATHIOPRINE] ?
a: 10.4

====

# Lookup of reported LIVER keyed by entry
Species on record: Rattus norvegicus
Assay: Open TG-GATES - Regimen: Daily Repeat
Assay type: toxicity, organism-based, Sprague-Dawley
Design: regimen Daily Repeat, gender Male, age 6 weeks
Conditions: in vivo, po, 0 mg/kg, […], tissue Liver, route gavage, dose level Control, time 14 day
Write the answer as a number in g, unit excluded.

Example results:
1) Cc1cccc(Nc2cc(Cl)nc(SCC(=O)O)n2)c1C [PIRINIXIC ACID]	14.7
2) CS(=O)(=O)Nc1ccc([N+](=O)[O-])cc1Oc1ccccc1 [NIMESULIDE]	14.5
3) Cn1cnc([N+](=O)[O-])c1Sc1ncnc2nc[nH]c12 [AZATHIOPRINE]	11.7
4) COc1ccc(O)c(C(C)(C)C)c1.COc1ccc(O)cc1C(C)(C)C [BUTYLATED HYDROXYANISOLE]	14.3

Could you now look at the following compound, please?
q: Requested field: LIVER. Item: O=P1(N(CCCl)CCCl)NCCCO1 (stereo not given) [CYCLOPHOSPHAMIDE ANHYDROUS]
a: 13.4

====

Species on record: Rattus norvegicus
Assay: Open TG-GATES - Regimen: Single
Type: toxicity, organism-based, Sprague-Dawley
Design: regimen Single, gender Male, age 6 weeks
Settings: in vivo, po, 0 mg/kg, 3 h, tissue Plasma, route gavage, dose level Control
CRE overview
Could you give me the number in mg/dL? Just the number is fine.

1. Cn1cnc([N+](=O)[O-])c1Sc1ncnc2nc[nH]c12 [AZATHIOPRINE]	0.2

q: I'd like to know its CRE. The molecule in question is S=C=Nc1cccc2ccccc12 [1-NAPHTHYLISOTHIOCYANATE]
a: 0.4

q: Let us now turn to O=P1(N(CCCl)CCCl)NCCCO1 (configuration not stated) [CYCLOPHOSPHAMIDE ANHYDROUS]
a: 0.2

q: What do you have for COc1ccc(O)c(C(C)(C)C)c1.COc1ccc(O)cc1C(C)(C)C [BUTYLATED HYDROXYANISOLE] ?
a: 0.2
